- target.system: Urease (Canavalia ensiformis, UniProt P07374)
- Sequence (P07374 whole entry): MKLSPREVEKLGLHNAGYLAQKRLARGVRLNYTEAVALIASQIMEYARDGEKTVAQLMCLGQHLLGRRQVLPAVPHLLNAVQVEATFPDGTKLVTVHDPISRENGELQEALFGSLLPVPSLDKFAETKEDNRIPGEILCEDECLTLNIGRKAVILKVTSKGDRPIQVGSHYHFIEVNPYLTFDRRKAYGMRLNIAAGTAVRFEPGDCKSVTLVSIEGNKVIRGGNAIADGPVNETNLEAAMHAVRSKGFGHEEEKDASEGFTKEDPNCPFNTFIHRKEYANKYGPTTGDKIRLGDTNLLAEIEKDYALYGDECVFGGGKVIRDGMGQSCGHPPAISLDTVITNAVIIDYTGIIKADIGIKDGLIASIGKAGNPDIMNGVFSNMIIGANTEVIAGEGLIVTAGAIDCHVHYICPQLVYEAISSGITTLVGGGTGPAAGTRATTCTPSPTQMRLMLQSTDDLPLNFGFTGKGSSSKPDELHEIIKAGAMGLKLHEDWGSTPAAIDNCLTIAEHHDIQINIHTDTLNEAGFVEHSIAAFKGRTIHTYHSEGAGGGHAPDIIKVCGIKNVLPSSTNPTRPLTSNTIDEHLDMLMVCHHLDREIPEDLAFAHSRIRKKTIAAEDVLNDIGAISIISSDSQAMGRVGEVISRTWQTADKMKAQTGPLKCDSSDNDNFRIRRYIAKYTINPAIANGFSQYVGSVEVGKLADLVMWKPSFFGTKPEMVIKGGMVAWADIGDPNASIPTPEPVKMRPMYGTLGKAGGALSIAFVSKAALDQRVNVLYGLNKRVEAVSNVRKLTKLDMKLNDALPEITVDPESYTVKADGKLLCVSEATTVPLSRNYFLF
- assay.summary: Inhibition of jack bean urease
For each record, write down the corresponding IC50.
Express the result in nM but write the number alone.

Query string: Identify IC50 associated with the compound "Cc1ncc([N+](=O)[O-])n1Cc1cn(Cc2ccc(F)cc2)nn1"
Result string: 1970

Query string: Tell me IC50 reported for "C/C(=N\NC(=S)Nc1cccc([N+](=O)[O-])c1)c1cc2ccccc2o1"
Result string: 77

Query string: Recall and state the measured IC50 for "Nn1c(-c2ccc(Br)cc2)n[nH]c1=S" .
Result string: 4300

###

- target.system: UniProtKB P07374
- assay.summary: Inhibition of jack bean urease
Assignment: determine reported IC50 for the given compounds.
Answer format: numeric, µM implied, no suffix.

Query string: Return IC50 for the following compound: CCOc1ccc(NC(=S)N(CC(O)COc2ccc(CC(N)=O)cc2)C(C)C)cc1 (stereo not given)
Result string: 11.7

Query string: For "COc1cc(C(=O)c2c(O)c3ccccc3oc2=O)cc(OC)c1OC" , write its IC50.
Result string: 11.3

Query string: Give the value of IC50 reported for the following: CCNC1NN=C(Cn2c(Cc3ccc(F)cc3)nc3ccccc3c2=O)S1 (stereo not given)
Result string: 4.73

Query string: Return IC50 for the following compound: O=C1O[C@H]([C@@H](O)CO)C(O)=C1O [ASCORBIC ACID]
Result string: 8.59

Query string: Please supply the value of reported IC50 for the item "CCc1nc2cc([N+](=O)[O-])ccc2n1S(=O)(=O)c1ccc(C)cc1"
Result string: 31.1

###

Please go through the items and note down their pIC50.
- target.system: Urease (Canavalia ensiformis, UniProt P07374)
- assay.summary: Inhibition of jack bean urease assessed as reduction on ammonia production using urea as substrate incubated for 30 mins by indophenol reagent based UV-vis spectrophotometer
Scale: negative log10 of molar concentration, which is what pIC50 denotes.

Query string: Fill in pIC50 for record "S=P(Nc1ccc(CCc2ccc(NP(=S)(c3ccccc3)c3ccccc3)cc2)cc1)(c1ccccc1)c1ccccc1"
Result string: 8.72

Query string: Complete the entry with pIC50 for "Cc1nc2cc(Cl)c(Cl)cc2n1Cc1nnc(S)n1-c1ccc([N+](=O)[O-])cc1"
Result string: 7.53

Query string: Retrieve pIC50 measured for "Cc1nc2cc(Cl)c(Cl)cc2n1CC(=O)NNC(=S)Nc1ccc([N+](=O)[O-])cc1" and print it.
Result string: 7.45
